Conditions: human gut metagenome, 24 h, 2 µM; also: call rule not given here
property: Bacterial Biotransformation

• O=C([O-])C[C@H](O)C[C@H](O)/C=C/c1c(C2CC2)nc2ccccc2c1-c1ccc(F)cc1.O=C([O-])C[C@H](O)C[C@H](O)/C=C/c1c(C2CC2)nc2ccccc2c1-c1ccc(F)cc1.[Ca+2] = Compound metabolized
• OCCN(CCO)c1nc(N2CCCCC2)c2nc(N(CCO)CCO)nc(N3CCCCC3)c2n1 = Compound metabolized
• COc1ccnc(C[S+]([O-])c2nc3ccc(OC(F)F)cc3[nH]2)c1OC (centres undefined) = Compound metabolized
• COCCCC/C(=N\OCCN)c1ccc(C(F)(F)F)cc1.O=C(O)/C=C\C(=O)O [FLUVOXAMINE MALEATE] = Compound NOT metabolized
• Cc1cc(C)cc(OCC2CNC(=O)O2)c1 (centres undefined) = Compound metabolized
• O=C1CC2(CCCC2)CC(=O)N1CCCCN1CCN(c2ncccn2)CC1 = Compound metabolized
• CC#CCn1c(N2CCC[C@@H](N)C2)nc2c1c(=O)n(Cc1nc(C)c3ccccc3n1)c(=O)n2C = Compound NOT metabolized
• CCOc1ccc2nc(S(N)(=O)=O)sc2c1 [ETHOXZOLAMIDE] = Compound NOT metabolized
• COc1cc(C(=O)NCc2ccc(OCCN(C)C)cc2)cc(OC)c1OC [TRIMETHOBENZAMIDE] = Compound NOT metabolized
• CCOC(=O)[C@H](CCc1ccccc1)N[C@@H](C)C(=O)N1CCC[C@H]1C(=O)O.O=C(O)/C=C\C(=O)O [ENALAPRIL MALEATE] = Compound NOT metabolized
• CCc1oc2ccccc2c1C(=O)c1cc(Br)c(O)c(Br)c1 = Compound metabolized
• CCCCCNC(=N)N/N=C/c1c[nH]c2ccc(OC)cc12.O=C(O)/C=C\C(=O)O [TEGASEROD MALEATE] = Compound NOT metabolized
• C[C@@H](c1ncncc1F)[C@](O)(Cn1cncn1)c1ccc(F)cc1F = Compound metabolized
• CC(C)(C)NCC(O)COc1cccc2c1CC(O)C(O)C2 (centres undefined) = Compound NOT metabolized
• C=C[C@H]1CN2CC[C@H]1C[C@H]2[C@H](O)c1ccnc2ccc(OC)cc12.C=C[C@H]1CN2CC[C@H]1C[C@H]2[C@H](O)c1ccnc2ccc(OC)cc12.O.O.O=S(=O)(O)O [QUININE SULFATE] = Compound NOT metabolized
• COc1ccc(Cc2nccc3cc(OC)c(OC)cc23)cc1OC = Compound metabolized
• COc1cc2nc(N3CCN(C(=O)C4CCCO4)CC3)nc(N)c2cc1OC (centres undefined) = Compound NOT metabolized
• CCOC(=O)C1=C(C)NC(C)=C(C(=O)OC)C1c1cccc([N+](=O)[O-])c1 (centres undefined) = Compound metabolized
• CC[C@@]1(O)C(=O)OCc2c1cc1n(c2=O)Cc2cc3c(CN(C)C)c(O)ccc3nc2-1 = Compound NOT metabolized
• CCOC(=O)C1=C[C@]2(CC)CCCN3CCc4c(n1c1ccccc41)[C@@H]32 = Compound metabolized
• CCS(=O)(=O)CCn1c([N+](=O)[O-])cnc1C = Compound metabolized
• c1ccc2[nH]c(-c3cscn3)nc2c1 = Compound NOT metabolized
• Nc1nc(NC2CC2)c2ncn([C@H]3C=C[C@@H](CO)C3)c2n1.Nc1nc(NC2CC2)c2ncn([C@H]3C=C[C@@H](CO)C3)c2n1.O=S(=O)(O)O [ABACAVIR SULFATE] = Compound metabolized
• CC(C)(C)NCC(O)c1cc(Cl)c(N)c(Cl)c1 (centres undefined) = Compound NOT metabolized
• O=P1(N(CCCl)CCCl)NCCCO1 (centres undefined) [CYCLOPHOSPHAMIDE ANHYDROUS] = Compound metabolized
• CSc1ccc2c(c1)C(N1CCN(C)CC1)Cc1ccccc1S2.O=C(O)/C=C\C(=O)O (centres undefined) = Compound NOT metabolized
• CN1CCC(OC(c2ccccc2)c2ccccc2)CC1 = Compound NOT metabolized
• C#C[C@]1(OC(C)=O)CC[C@H]2[C@@H]3CCC4=CC(=O)CC[C@@H]4[C@H]3CC[C@@]21C [NORETHINDRONE ACETATE] = Compound metabolized
• CN1CCN2c3ccccc3Cc3ccccc3C2C1 (centres undefined) = Compound metabolized
• C[C@]12C=CC(=O)C=C1CC[C@@H]1[C@@H]2C(=O)C[C@@]2(C)[C@H]1CC[C@]2(O)C(=O)CO = Compound metabolized
• OC(c1cc(C(F)(F)F)nc2c(C(F)(F)F)cccc12)C1CCCCN1 (centres undefined) = Compound metabolized
• N[C@@H](Cc1ccc(N(CCCl)CCCl)cc1)C(=O)O = Compound metabolized
• CC(=O)Nc1ccc(OC(C)=O)cc1 [DIACETAMATE] = Compound metabolized
• CC(C)NCC(O)COc1ccc(CC(N)=O)cc1 (centres undefined) = Compound NOT metabolized
